System: HOP-92 NSCLC
Assay: NCI-60 one-dose screen, 48 h
Settings: 10 µM unless noted
The panel holds about 83,000 compounds, 20% with a hit somewhere; the sample as a whole holds those more often. Active and inactive are the calls of the source. How the source made its calls: active means growth percent below 10; inactive means the rest.
# valid calls are active, inactive; nothing else

Just curious, what result did `COc1ccc(/C=C2\CN(Cc3cn(CCNc4ccnc5cc(Cl)ccc45)nn3)C/C(=C\c3ccc(OC)c(OC)c3)C2=O)cc1OC` get here?
active

Now this one: `CN1CCN(Cc2ccc(NC(=O)c3cncc(C#Cc4cnc(N)c5ccncc45)c3)cc2C(F)(F)F)CC1`
active

Next: `CC(=O)Oc1cccc(S(=O)(=O)n2cc(C(=O)C(=O)Nc3ccncc3)c3ccccc32)c1`
inactive

Then `COc1ccc(/C=C\c2cc(OC)c(OC)c(OC)c2)cc1OC(=O)c1cccc(Cn2cc(CCOC(=O)c3cccc(Cn4nnc5c4C(=O)c4ccccc4C5=O)c3)nn2)c1` ?
inactive

Numbers sourced from PubChem BioAssay (NCI).
